test_system: T1, human OPGbp [143-317] (human, UniProt O14788 143-317)
T1 construct: also called OPGL
T1 sequence (looked up): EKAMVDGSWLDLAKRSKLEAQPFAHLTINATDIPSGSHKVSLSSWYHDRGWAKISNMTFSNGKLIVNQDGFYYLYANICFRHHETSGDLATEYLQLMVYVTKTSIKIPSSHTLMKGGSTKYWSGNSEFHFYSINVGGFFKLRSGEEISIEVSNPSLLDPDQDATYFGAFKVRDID
method: SPR (BIAcore), immobilized OPGbp [143-317]
Kindly return y if reported koff is no lower than 0.5 s⁻¹; return n if it is lower.

“AT” Fab variant I(100e)A (heavy chain CDR3) (Fab, name in Kabat numbering, V domains shown) VH: QVQLVQSGAEVRKPGASVKVSCKASGYDFSNYAIHWVRQAPGQRLEWMGWINAGNGNTKFSQKFQGRITVTRDTAASTAYMELRSLRSEDTAVYYCARDSSNMVRGIIAAYYFDYWGQGTLVTVSS VL: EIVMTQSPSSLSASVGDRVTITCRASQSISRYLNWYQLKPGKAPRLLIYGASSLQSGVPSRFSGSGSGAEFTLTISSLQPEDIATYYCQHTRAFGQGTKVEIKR = n
“AT” Fab variant Y(100g)A (heavy chain CDR3) (Fab, name in Kabat numbering, V domains shown) VH: QVQLVQSGAEVRKPGASVKVSCKASGYDFSNYAIHWVRQAPGQRLEWMGWINAGNGNTKFSQKFQGRITVTRDTAASTAYMELRSLRSEDTAVYYCARDSSNMVRGIIIAAYFDYWGQGTLVTVSS VL: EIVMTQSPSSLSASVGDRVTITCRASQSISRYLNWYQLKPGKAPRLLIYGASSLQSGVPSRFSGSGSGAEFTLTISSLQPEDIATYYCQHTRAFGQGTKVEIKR = n
“AT” Fab variant N98A (heavy chain CDR3) (Fab, name in Kabat numbering, V domains shown) VH: QVQLVQSGAEVRKPGASVKVSCKASGYDFSNYAIHWVRQAPGQRLEWMGWINAGNGNTKFSQKFQGRITVTRDTAASTAYMELRSLRSEDTAVYYCARDSSAMVRGIIIAYYFDYWGQGTLVTVSS VL: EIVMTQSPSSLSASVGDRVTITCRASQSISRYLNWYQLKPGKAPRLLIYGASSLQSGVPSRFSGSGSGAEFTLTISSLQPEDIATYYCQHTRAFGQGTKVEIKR = n
“AT” Fab variant M99A (heavy chain CDR3) (Fab, name in Kabat numbering, V domains shown) VH: QVQLVQSGAEVRKPGASVKVSCKASGYDFSNYAIHWVRQAPGQRLEWMGWINAGNGNTKFSQKFQGRITVTRDTAASTAYMELRSLRSEDTAVYYCARDSSNAVRGIIIAYYFDYWGQGTLVTVSS VL: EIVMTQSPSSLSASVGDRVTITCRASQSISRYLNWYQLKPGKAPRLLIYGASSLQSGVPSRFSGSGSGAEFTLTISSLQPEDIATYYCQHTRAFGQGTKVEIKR = y
Fab “AT” (Fab, V domains shown, Soluble Fab from E. coli periplasm purified on Talon resin; also called soluble Fab “AT”; Fab pattern “AT”) VH: QVQLVQSGAEVRKPGASVKVSCKASGYDFSNYAIHWVRQAPGQRLEWMGWINAGNGNTKFSQKFQGRITVTRDTAASTAYMELRSLRSEDTAVYYCARDSSNMVRGIIIAYYFDYWGQGTLVTVSS VL: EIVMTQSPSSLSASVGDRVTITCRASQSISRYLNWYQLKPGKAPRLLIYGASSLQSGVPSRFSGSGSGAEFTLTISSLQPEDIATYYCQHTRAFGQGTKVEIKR = n

Query: Item “AT” Fab variant I(100d)A (heavy chain CDR3) (Fab, name in Kabat numbering, V domains shown) VH: QVQLVQSGAEVRKPGASVKVSCKASGYDFSNYAIHWVRQAPGQRLEWMGWINAGNGNTKFSQKFQGRITVTRDTAASTAYMELRSLRSEDTAVYYCARDSSNMVRGIAIAYYFDYWGQGTLVTVSS VL: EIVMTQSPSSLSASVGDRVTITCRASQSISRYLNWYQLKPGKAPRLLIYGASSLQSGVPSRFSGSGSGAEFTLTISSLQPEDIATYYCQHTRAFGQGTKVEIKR with koff of 0.5 s⁻¹ or above?
Response: y

Query: Item “AT” Fab variant G(100b)A (heavy chain CDR3) (Fab, name in Kabat numbering, V domains shown) VH: QVQLVQSGAEVRKPGASVKVSCKASGYDFSNYAIHWVRQAPGQRLEWMGWINAGNGNTKFSQKFQGRITVTRDTAASTAYMELRSLRSEDTAVYYCARDSSNMVRAIIIAYYFDYWGQGTLVTVSS VL: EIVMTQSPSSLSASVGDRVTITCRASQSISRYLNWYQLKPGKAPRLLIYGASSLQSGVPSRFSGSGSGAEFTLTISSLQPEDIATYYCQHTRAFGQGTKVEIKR with koff of 0.5 s⁻¹ or above?
Response: y

Query: Item “AT” Fab variant Y(100h)A (heavy chain CDR3) (Fab, name in Kabat numbering, V domains shown) VH: QVQLVQSGAEVRKPGASVKVSCKASGYDFSNYAIHWVRQAPGQRLEWMGWINAGNGNTKFSQKFQGRITVTRDTAASTAYMELRSLRSEDTAVYYCARDSSNMVRGIIIAYAFDYWGQGTLVTVSS VL: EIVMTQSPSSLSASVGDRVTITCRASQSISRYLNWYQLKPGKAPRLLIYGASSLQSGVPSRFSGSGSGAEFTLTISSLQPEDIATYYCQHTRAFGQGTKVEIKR with koff of 0.5 s⁻¹ or above?
Response: n

Query: Item “AT” Fab variant I(100c)A (heavy chain CDR3) (Fab, name in Kabat numbering, V domains shown) VH: QVQLVQSGAEVRKPGASVKVSCKASGYDFSNYAIHWVRQAPGQRLEWMGWINAGNGNTKFSQKFQGRITVTRDTAASTAYMELRSLRSEDTAVYYCARDSSNMVRGAIIAYYFDYWGQGTLVTVSS VL: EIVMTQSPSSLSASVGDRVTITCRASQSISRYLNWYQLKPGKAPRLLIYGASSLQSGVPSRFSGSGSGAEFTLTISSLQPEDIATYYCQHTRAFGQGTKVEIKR with koff of 0.5 s⁻¹ or above?
Response: y

Query: Item “AT” Fab variant V100A (heavy chain CDR3) (Fab, name in Kabat numbering, V domains shown) VH: QVQLVQSGAEVRKPGASVKVSCKASGYDFSNYAIHWVRQAPGQRLEWMGWINAGNGNTKFSQKFQGRITVTRDTAASTAYMELRSLRSEDTAVYYCARDSSNMARGIIIAYYFDYWGQGTLVTVSS VL: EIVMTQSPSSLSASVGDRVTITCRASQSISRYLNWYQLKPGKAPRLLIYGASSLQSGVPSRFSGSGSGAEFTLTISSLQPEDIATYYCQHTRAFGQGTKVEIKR with koff of 0.5 s⁻¹ or above?
Response: n
